Assay: basal RPMI8226 mitochondrial membrane potential changes, profiling panel, cell-based, JC-1 fluorescence, 24 h, 100 nL compound (AID 1169); note: test concentration not given here
Conditions: RPMI8226 myeloma, JC-1 mitochondrial potential fluorescence, higher = more signal
Please go through the items and note down their z-score.
Give bare numbers.

Hi! Can you tell me z-score for each of these compounds?
1. CCOC(=O)CCN1C(=O)[C@H]2[C@H]3[C@H](O)[C@H](O)CC(=NOC[C@@H](O)COCc4ccco4)[C@@H]3CC[C@H]2C1=O
2. CCOC(=O)C[C@H]1[C@H](OC(=O)c2cc3ccccc3oc2=O)[C@@H](NC(=O)c2ccc3ccccc3n2)c2cc(OCCCO)ccc2N1C(=O)c1ccccc1
3. CCCC=C(CCC)[C@@H](NC(=O)c1ccc(-c2ccccc2)cc1)c1ccc(C(=O)OC)cc1
4. CCOC(=O)NN=C1C[C@@H](O)[C@@H](O)[C@@H]2[C@@H]3C(=O)N(C4CCCCC4)C(=O)[C@@H]3CC[C@H]12
5. N#Cc1ccc(NN2C(C(O)c3cc(C(F)(F)F)cc(C(F)(F)F)c3)C=CC3C(=O)N(c4ccccc4)C(=O)C32)cc1 (configuration not stated)

-0.393
-0.264
-0.834
-0.527
-0.754

Hi! Can you tell me z-score for each of these compounds?
1. CCOC(=O)CCN1C(=O)[C@H]2[C@H]3[C@H](O)[C@H](O)CC(=O)[C@H]3CC[C@H]2C1=O
2. COC(=O)[C@@H]1CC[C@H](C)[C@@H](c2ccc(C)cc2)N1C(=O)c1ccc(C=NOC[C@@H](O)COCc2ccco2)cc1

0.0295
0.304

---

Please go through the items and note down their z-score.
Assay: basal RPMI8226 mitochondrial membrane potential changes, profiling panel, cell-based, JC-1 fluorescence, 24 h, 100 nL compound (AID 1169); note: test concentration not given here
Details: RPMI8226 myeloma, JC-1 mitochondrial potential fluorescence, higher = more signal
One number for each entry.

Completed entries (count: 4):
COC(=O)C1=C(C)N(Cc2ccccc2)[C@]23O[C@](C(=O)OC)(C(=O)N2[C@@H]1c1ccccc1)[C@H]1CCOC(=O)[C@H]13 | -0.139
COC(=O)[C@]1(CO)N=C(c2ccc(OCCCO)cc2)O[C@@H]1c1ccccc1N=[N+]=[N-] | 0.392
CO[C@H]1COC(=O)[C@@H]2CCCN2C(=O)CC=C[C@@H](C)[C@H](OC)COC(=O)CC=C[C@@H]1C | -1.13
CCc1cccc(NC(=O)O[C@H]2[C@H](OC(=O)Nc3ccc4c(c3)OCO4)[C@@H](OC(=O)Nc3ccc4c(c3)OCO4)[C@@H](OC)O[C@@H]2CO)c1 | -0.806

Hi! Can you tell me z-score for each of these compounds?
1. Cn1c(=O)n2n(c1=O)[C@H]1[C@H](O)[C@@H]3O[C@@H]3C(=NOC[C@@H](O)COCc3ccco3)[C@H]1CC2
2. CC(C)C[C@@H]1NC(=O)[C@H]2C[C@@H](C(=O)O)[C@@H](c3ccc(O)cc3)N2C1=O
3. CCCC[C@@H]1C[C@H]1[C@@H](NS(=O)(=O)c1cccc2cccnc12)c1ccc(-c2ccccc2)cc1
4. COC(=O)[C@@H]1CCCN1C(=O)[C@@H](C)CO

1. -0.402
2. 0.433
3. -0.214
4. -0.157
